- protocol_text: Solubility of the compound at pH 5.4
- Format: physicochemical
- assay_context: buffer
measured_quantity: solubility

[ask] Annotate the compound `COc1cnc(OC)c2c1c(C(=O)C(=O)N1CCN(C(=O)c3ccccc3)CC1)cn2COP(=O)(O)O.NCCCC[C@H](N)C(=O)O` with its measured solubility.
[reply] > 12 mg/mL

----------
- protocol_text: Aqueous solubility of the compound
- Assay type: physicochemical
measured_quantity: solubility (µg/mL)
A number alone suffices; assume µg/mL.

[ask] Return value of solubility for input `COc1ccnc2[nH]cc(C(=O)C(=O)N3CCN(C(=O)c4ccccc4)C[C@@H]3C)c12` , no commentary.
[reply] 170

----------
- protocol_text: Oral bioavailability in monkey
- Format: ADME, organism-based, Macaca mulatta
- assay_context: rhesus monkey, in vivo
measured_quantity: bioavailability (%)
Field: numeric (%). Do not append units.

> print(dat)
                    structure.smiles.string  measured.quantity  measurement
1  COc1ccnc2[nH]cc(C(=O)C(=O)N3CCN(C(=O)c4ccccc4)C[C@@H]3C)c12    bioavailability           24

Kindly consider the entry below.
[ask] Look up and state reported bioavailability for `COc1ncc(OC)c2c(C(=O)C(=O)N3CCN(C(=O)c4ccccc4)CC3)c[nH]c12`
[reply] 60

----------
- System: Human immunodeficiency virus 1
- protocol_text: Antiviral activity against HIV-1 JR-CSF assessed as inhibition of viral growth
- Format: functional, organism-based
- assay_context: Human immunodeficiency virus 1, JR-CSF
measured_quantity: pIC50
// scale note: pIC50 = -log10(conc_M); give the bare number

[ask] Give the measured pIC50 for Cc1ncn(-c2ncc(F)c3c(C(=O)C(=O)N4CC5CN(C(=O)c6ccccc6)CC5C4)c[nH]c23)n1 (stereo unspecified)
[reply] 9.10

----------
- protocol_text: Oral bioavailability in dog
- Format: ADME, organism-based, Canis lupus familiaris
- assay_context: in vivo
measured_quantity: bioavailability
Just the number plus its unit, please.

[ask] Name the recorded bioavailability of the item `COc1ccnc2[nH]cc(C(=O)C(=O)N3CCN(C(=O)c4ccccc4)C[C@@H]3C)c12` in your answer.
[reply] 77%
